- studySystem: hGal-3 (UniProt P17931 2-250)
- Sequence (P17931 2-250): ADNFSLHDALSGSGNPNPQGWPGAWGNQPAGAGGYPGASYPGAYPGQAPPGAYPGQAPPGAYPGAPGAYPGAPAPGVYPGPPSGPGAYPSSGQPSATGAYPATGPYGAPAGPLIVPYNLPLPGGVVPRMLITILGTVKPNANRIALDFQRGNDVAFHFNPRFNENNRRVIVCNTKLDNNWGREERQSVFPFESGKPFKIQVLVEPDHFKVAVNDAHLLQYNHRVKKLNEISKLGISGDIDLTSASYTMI
- assayDetails: SPR
Examples of binders with documented Kd follow.
# value in nM; strip the unit string

IN: Which Kd reading was recorded for the binder 13G4.2F8 (antibody, V domains shown) VH: QVQLQQPGAELVKPGASVKLSCKASGYTFTSYWMHWVKQRPGQGLEWIGMIHPNSGSTDYNEKFKNKATLNVDKSSSTAYIQLSSLTSEDSAVYYCTRWGIYYYARDYWGQGTTLTVSS VL: DIVMTQSQKFMSTSVGERVSITCKASQNVGTNVAWYQQKAGQSLELLIYGASNRHTGVPDRFTGSGSGTDFTLTITNVQSEDMTNYFCEQYSNFPLTFGAGTKLELKR ?
OUT: 2.53

Further cases:
IN: Request the reported Kd associated with 9H2.2H10 (antibody, V domains shown) VH: QVQLQQPGAELVGPGSSVKLSCKASGYTFTNYWIHWVKQRPLQGLEWIGNIDPSDSETHYNQKFKDKATLTVDKSSSTAYMQLSSLTSEDSAVYYCARHGYYDYWGQGTTLTVSS VL: DIVMTQSHKFMSTSVGDRVSITCKASQDVSTAVAWYQQKPGQSPKLLIYWASTRHTGVPDRFTGSGSGTDYTLTISSVQAEDLALYYCQQHYTTPLTFGAGTKLELKR
OUT: 18.4

Taken from patent US20220411514A1.
